- test-target: T1, human Nectin-4 (Homo sapiens, UniProt Q96NY8)
- T1 sequence (Q96NY8 32-510): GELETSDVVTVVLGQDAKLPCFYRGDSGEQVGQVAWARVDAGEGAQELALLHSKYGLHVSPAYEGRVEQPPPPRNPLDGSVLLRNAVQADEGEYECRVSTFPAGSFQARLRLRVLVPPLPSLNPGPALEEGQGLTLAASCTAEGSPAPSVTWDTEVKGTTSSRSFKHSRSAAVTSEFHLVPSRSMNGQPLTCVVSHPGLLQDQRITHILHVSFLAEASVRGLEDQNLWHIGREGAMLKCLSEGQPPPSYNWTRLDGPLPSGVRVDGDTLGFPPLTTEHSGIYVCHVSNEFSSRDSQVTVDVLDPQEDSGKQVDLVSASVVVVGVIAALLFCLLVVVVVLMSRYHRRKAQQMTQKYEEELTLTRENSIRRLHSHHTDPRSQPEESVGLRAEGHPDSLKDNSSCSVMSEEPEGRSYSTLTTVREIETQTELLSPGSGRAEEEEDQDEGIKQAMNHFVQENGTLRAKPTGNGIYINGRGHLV
- measurement-protocol: Binding to human Nectin-4 by SPR
- condition-details: SPR association constant; second set (Table 7)
Entries and their measured ka follow.
readout-kind: ka (M⁻¹ s⁻¹)

{"molecule": "H7L1 (antibody, human IgG1, V domains shown, human IgG1 isotype) VH: QVQLVQSGAEVKKPGASVKVSCKASGYIFTSYWMHWVKQRPGQGLEWIGEIDPSDSYTNYNQKFKGRVTLTLDKSTSTTYMELSSLRSEDTAVYYCARGYGNYGDYWGQGTLVTVSS VL: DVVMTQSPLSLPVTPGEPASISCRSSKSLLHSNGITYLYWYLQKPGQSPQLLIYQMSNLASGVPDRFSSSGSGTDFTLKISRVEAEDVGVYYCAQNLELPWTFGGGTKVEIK", "recorded-measurement": 200000}
{"molecule": "H4L1 (antibody, human IgG1, V domains shown, human IgG1 isotype) VH: QVQLVQSGAEVKKPGASVKVSCKASGYIFTSYWMHWVKQAPGQGLEWMGEIDPSDSYTNYNQKFKGRVTMTLDKSTSTTYMELSSLRSEDTAVYYCARGYGNYGDYWGQGTLVTVSS VL: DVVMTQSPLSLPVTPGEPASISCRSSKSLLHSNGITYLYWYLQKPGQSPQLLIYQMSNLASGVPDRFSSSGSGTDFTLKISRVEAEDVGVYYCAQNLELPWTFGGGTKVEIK", "recorded-measurement": 310000}
{"molecule": "H6L3 (antibody, human IgG1, V domains shown, human IgG1 isotype) VH: QVQLVQSGAEVKKPGASVKVSCKASGYIFTSYWMHWVKQRPGQGLEWIGEIDPSDSYTNYNQKFKGRVTMTLDKSTSTTYMELSSLRSEDTAVYYCARGYGNYGDYWGQGTLVTVSS VL: DVVMTQSALSNPVTPGEPASISCRSSKSLLHSNGITYLYWYLQKPGQSPQLLIYQMSNLASGVPDRFSSSGSGTDFTLKISRVEAEDVGVYYCAQNLELPWTFGGGTKVEIK", "recorded-measurement": 130000}
{"molecule": "H6L1 (antibody, human IgG1, V domains shown, human IgG1 isotype) VH: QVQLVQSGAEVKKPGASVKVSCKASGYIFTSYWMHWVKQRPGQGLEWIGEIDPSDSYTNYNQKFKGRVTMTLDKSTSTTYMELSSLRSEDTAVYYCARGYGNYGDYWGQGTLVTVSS VL: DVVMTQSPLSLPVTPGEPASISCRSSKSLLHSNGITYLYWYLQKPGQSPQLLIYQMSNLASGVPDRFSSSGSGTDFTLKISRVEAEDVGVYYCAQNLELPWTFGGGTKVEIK", "recorded-measurement": 190000}
{"molecule": "5E7 (antibody, V domains shown) VH: QVQLQQPGAELVKPGASVKLSCKASGYIFTSYWMHWVKQRPGQGLEWIGEIDPSDSYTNYNQKFKGKATLTLDKSSSTTYMQLSSLTSEDSAVYYCVRGYGNYGDYWGQGTTLTVSSASTKGP VL: DVVMTQAAFSNPVTLGTSASISCRSSKSLLHSNGITYLYWYLQKPGQSPQLLIYQMSNLASGVPDRFSSSGSGTDFTLRISRVEAEDVGVYYCAQNLELPWTFGGGTKLEIKRTVAAP", "recorded-measurement": 480000}
{"molecule": "H7L2 (antibody, human IgG1, V domains shown, human IgG1 isotype) VH: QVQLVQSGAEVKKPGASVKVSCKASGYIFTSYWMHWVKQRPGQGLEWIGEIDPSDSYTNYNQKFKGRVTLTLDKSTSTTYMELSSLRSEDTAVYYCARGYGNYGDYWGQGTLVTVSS VL: DVVMTQSPLSNPVTPGEPASISCRSSKSLLHSNGITYLYWYLQKPGQSPQLLIYQMSNLASGVPDRFSSSGSGTDFTLKISRVEAEDVGVYYCAQNLELPWTFGGGTKVEIK", "recorded-measurement": 160000}
{"molecule": "H8L1 (antibody, human IgG1, V domains shown, human IgG1 isotype) VH: QVQLVQSGAEVKKPGASVKVSCKASGYIFTSYWMHWVKQAPGQGLEWIGEIDPSDSYTNYNQKFKGRVTMTLDKSTSTTYMELSSLRSEDTAVYYCARGYGNYGDYWGQGTLVTVSS VL: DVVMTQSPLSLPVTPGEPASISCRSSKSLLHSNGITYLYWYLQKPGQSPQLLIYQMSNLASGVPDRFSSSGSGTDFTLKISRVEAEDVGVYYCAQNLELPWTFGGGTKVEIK", "recorded-measurement": 250000}

Sourced from patent US20250297004A1
